Tested on: HMLE_sh_eGFP viability, CellTiter-Glo luminescence, 72 h
protocol: cytotoxicity in HMLE control line with eGFP shRNA, dose response, counter-screen for HMLE_sh_ECad selective toxicity project, cell-based, HMLE_sh_eGFP, luminescence (AID 463074);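 note: counterscreen control line to flag general toxicity for the HMLE_sh_ECad screen; potency for loss of viability as luminescence drops below DMSO wells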
Activity calls are given as the source filed them.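 Rule for the calls: active = AC50 no more than tenfold above the top dose tested, or full inhibition at every dose with a flat fit (cut at about 19 µM in these data); inconclusive = flat curve fit with inhibition between 30% and 70%, or poor fit; inactive = AC50 more than tenfold above the top dose tested.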
Permitted responses: active, inactive

INSERT INTO assay_data (compound, experimental_target, classification) VALUES
  ('CNC(=O)C1C(=S)NC(N)=C(C#N)C1c1ccccc1 (stereo not drawn)', 'HMLE_sh_eGFP viability, CellTiter-Glo luminescence, 72 h', 'inactive'),
  ('Cc1c(C(=O)c2cccc3ccccc23)c2cccc3c2n1[C@H](CN1CCOCC1)CO3', 'HMLE_sh_eGFP viability, CellTiter-Glo luminescence, 72 h', 'active');

Query :: What classification did CCOC(=O)N1CCN(CCC(=O)c2ccc(Cl)cc2)CC1 end up with in this test?
Result :: active
